target: T1, extracellular domain (ECD) of human epidermal growth factor receptor 2 (HER2) (Homo sapiens, UniProt P04626); assay: SPR; BIAcore T200; HER2/ECD immobilised on a CM5 chip by amine coupling to 1000 RU; IgG flowed in PBST (0.05% Tween 20) at 30 uL/min; regeneration 10 mM glycine pH 1.5; global fit to a 1:1 binding model; settings: both partners purified
T1 construct: human epidermal growth factor receptor 2 (HER2), extracellular domain; also called HER2/ECD
readout: kon (M⁻¹ s⁻¹)
Give the value in M⁻¹ s⁻¹ but do not write M⁻¹ s⁻¹ after it.

- GH2-8 IgG (antibody, V domains shown, source: HEK293-F, transient transfection, purified (Protein A, Superdex 200)) VH: GVQLVESGGGLVQPGGSLRLSCAASGFTIGSSGIHWVRQAPGKGLEWVAGIWPYWGSTYYADSVKGRFTISADTSKNTAYLQMNSLRAEDTAVYYCARFGVGYHYYMDYWGQGTLVTVSS VL: DIQMTQSPSSLSASVGDRVTITCRASQDVGWWVAWYQQKPGKAPKLLISGATGLYSGVPSRFSGSGSGTDFTLTISSLQPEDFATYYCQQSWDSPITFGQGTKVEIK: 599000

Continue with the next binder.
Input GH2-40 IgG (antibody, V domains shown, source: HEK293-F, transient transfection, purified (Protein A, Superdex 200)) VH: EVQLVESGGGLVQPGGSLRLSCAASGFTINSWGIHWVRQAPGKGLEWVAWIGPYWGFTSYADSVKGRFTISADTSKNTAYLQMNSLRAEDTAVYYCARFDGHFDGVMDYWGQGTLVTVSS VL: DIQMTQSPSSLSASVGDRVTITCRASQDVNNGVAWYQQKPGKAPKLLISGTPWLYSGVPSRFSGSGSGTDFTLTISSLQPEDFATYYCQQYFDWPLTFGQGTKVEIK , output reported kon.
71200
